Data credit: paper PMC10535268

Record form. Attribute: FRAP. Fill in for each entry.
assay: Ferric reducing antioxidant power (FRAP); details: sample 1 mM, 30 min, gallic acid equivalents, mean (±SD), triplicate

Recorded FRAP, per entry:
Req: What measured FRAP goes with Cn1cc(/C=C/C(=O)c2ccccc2F)c2ccccc21 [11b] ?
Resp: 47.2 (±1.0) µmol GAE/mmol

Req: Consider the molecule shown here: O=C(/C=C/c1ccc(O)cc1)c1c[nH]c2ccccc12 [17a] What is its recorded FRAP?
Resp: 161.6 (±5.7) µmol GAE/mmol

Req: State the recorded FRAP for this entry: O=C(O)/C=C/c1ccc(O)c(O)c1 [caffeic acid, reference compound]
Resp: 500.0 (±33.5) µmol GAE/mmol

Req: Could you share which FRAP value was measured for O=C(/C=C/c1c[nH]c2ccccc12)c1ccccc1F [11a] ?
Resp: 62.2 (±9.9) µmol GAE/mmol

Req: So what's the measured FRAP for this one? COn1cc(/C=C/C(=O)c2ccc(O)cc2)c2ccccc21 [14c]
Resp: 42.0 (±2.0) µmol GAE/mmol

Batch of 3 molecules: report FRAP for each.
1. COn1cc(/C=C/C(=O)c2ccccc2O)c2ccccc21 [13c]
2. COc1cc(/C=C/C(=O)c2cn(C)c3ccccc23)ccc1O [19b]
3. Cn1cc(/C=C/C(=O)c2ccc(O)cc2)c2ccccc21 [14b]

Resp:
["43.4 (±1.8) µmol GAE/mmol", "262.2 (±14.2) µmol GAE/mmol", "114.3 (±4.2) µmol GAE/mmol"]

* * *

experiment: Ferric reducing antioxidant power (FRAP); settings: sample 1 mM, 30 min, gallic acid equivalents, mean (±SD), triplicate
outcome_measure: FRAP

Below, each entry is followed by its recorded FRAP result.
Req: Look up FRAP: Cn1cc(C(=O)/C=C/c2ccc(O)c(O)c2)c2ccccc21 [18b]
Resp: 564.8 (±2.2) µmol GAE/mmol

Req: Given the entry COn1cc(/C=C/C(=O)c2ccccc2F)c2ccccc21 [11c] , report its measured FRAP.
Resp: 27.4 (±0.9) µmol GAE/mmol

Req: Find the recorded FRAP belonging to COc1cc(/C=C/C(=O)c2c[nH]c3ccccc23)ccc1O [19a] and report it.
Resp: 307.2 (±11.9) µmol GAE/mmol

Req: State the recorded FRAP for this entry: COc1cc(/C=C/C(=O)c2cn(OC)c3ccccc23)ccc1O [19c]
Resp: 296.2 (±10.4) µmol GAE/mmol

Req: // query FRAP value for entry O=C(/C=C/c1ccc(O)c(O)c1)c1c[nH]c2ccccc12 [18a]
Resp: 480.9 (±28.8) µmol GAE/mmol

Could you report FRAP for every entry in the following list?
1. O=C(O)/C=C/c1ccc(O)cc1 [p -coumaric acid, p-coumaric acid, reference compound]
2. CCCOc1[nH]c2ccccc2c1/C=C/C(=O)c1ccccc1F [11f]
3. O=C(/C=C/c1c[nH]c2ccccc12)c1ccc(O)cc1 [14a]
4. Cn1cc(C(=O)/C=C/c2ccc(O)cc2)c2ccccc21 [17b]
5. O=C(/C=C/c1c[nH]c2ccccc12)c1ccccc1O [13a]

Resp:
1: 105.2 (±4.2) µmol GAE/mmol; 2: 183.5 (±0.9) µmol GAE/mmol; 3: 105.5 (±3.4) µmol GAE/mmol; 4: 156.2 (±1.1) µmol GAE/mmol; 5: 125.2 (±9.4) µmol GAE/mmol
